Counter-ions that a name gives are not always drawn.
Quick note: these are MIC numbers for system: Staphylococcus aureus (ATCC25923)
I only need the number, in µg/mL, no unit after it.

{"columns": ["COMPOUND", "MIC / µg/mL"],
 "data": [
  ["Cc1cccc(C(CC(=O)NC2CCC(N)CC2)c2cn(CC3CCCCC3)c3ccc(-c4ccccc4C)cc23)c1.Cl (centres unmarked)", 38],
  ["Cl.N[C@H]1CC[C@H](NC(=O)CCc2cn(CC3CCCCC3)c3ccc(-c4cccc(OC(F)(F)F)c4)cc23)CC1", 18],
  ["NC1CCC(NCCC(c2cccc(Cl)c2)c2cn(CC3CCCCC3)c3ccccc23)CC1 (centres unmarked) [Compound 170, hydrochloride salt]", 2]
]}

Let us move to another entry and its MIC.
// MIC lookup, compound = Cc1cccc(C(CC(=O)NC2CCC(N)CC2)c2cn(CC3CCNCC3)c3ccccc23)c1 (centres unmarked) [Compound 159, hydrochloride salt] , result: 279

Just for reference, patent US20210246115A1 is where these values come from.
